target: ΔF508-CFTR (Homo sapiens, UniProt P13569, DEL508-508); construct: Fisher rat epithelial (FRT) cells for Ussing chamber follow-up; assay: Assays for ΔF508-CFTR correction and potentiator properties (membrane potential optical and electrophysiological methods); details: CFTR modulation, tested using the above methods
Sequence (P13569 with tags, fused parts or gaps DEL508-508): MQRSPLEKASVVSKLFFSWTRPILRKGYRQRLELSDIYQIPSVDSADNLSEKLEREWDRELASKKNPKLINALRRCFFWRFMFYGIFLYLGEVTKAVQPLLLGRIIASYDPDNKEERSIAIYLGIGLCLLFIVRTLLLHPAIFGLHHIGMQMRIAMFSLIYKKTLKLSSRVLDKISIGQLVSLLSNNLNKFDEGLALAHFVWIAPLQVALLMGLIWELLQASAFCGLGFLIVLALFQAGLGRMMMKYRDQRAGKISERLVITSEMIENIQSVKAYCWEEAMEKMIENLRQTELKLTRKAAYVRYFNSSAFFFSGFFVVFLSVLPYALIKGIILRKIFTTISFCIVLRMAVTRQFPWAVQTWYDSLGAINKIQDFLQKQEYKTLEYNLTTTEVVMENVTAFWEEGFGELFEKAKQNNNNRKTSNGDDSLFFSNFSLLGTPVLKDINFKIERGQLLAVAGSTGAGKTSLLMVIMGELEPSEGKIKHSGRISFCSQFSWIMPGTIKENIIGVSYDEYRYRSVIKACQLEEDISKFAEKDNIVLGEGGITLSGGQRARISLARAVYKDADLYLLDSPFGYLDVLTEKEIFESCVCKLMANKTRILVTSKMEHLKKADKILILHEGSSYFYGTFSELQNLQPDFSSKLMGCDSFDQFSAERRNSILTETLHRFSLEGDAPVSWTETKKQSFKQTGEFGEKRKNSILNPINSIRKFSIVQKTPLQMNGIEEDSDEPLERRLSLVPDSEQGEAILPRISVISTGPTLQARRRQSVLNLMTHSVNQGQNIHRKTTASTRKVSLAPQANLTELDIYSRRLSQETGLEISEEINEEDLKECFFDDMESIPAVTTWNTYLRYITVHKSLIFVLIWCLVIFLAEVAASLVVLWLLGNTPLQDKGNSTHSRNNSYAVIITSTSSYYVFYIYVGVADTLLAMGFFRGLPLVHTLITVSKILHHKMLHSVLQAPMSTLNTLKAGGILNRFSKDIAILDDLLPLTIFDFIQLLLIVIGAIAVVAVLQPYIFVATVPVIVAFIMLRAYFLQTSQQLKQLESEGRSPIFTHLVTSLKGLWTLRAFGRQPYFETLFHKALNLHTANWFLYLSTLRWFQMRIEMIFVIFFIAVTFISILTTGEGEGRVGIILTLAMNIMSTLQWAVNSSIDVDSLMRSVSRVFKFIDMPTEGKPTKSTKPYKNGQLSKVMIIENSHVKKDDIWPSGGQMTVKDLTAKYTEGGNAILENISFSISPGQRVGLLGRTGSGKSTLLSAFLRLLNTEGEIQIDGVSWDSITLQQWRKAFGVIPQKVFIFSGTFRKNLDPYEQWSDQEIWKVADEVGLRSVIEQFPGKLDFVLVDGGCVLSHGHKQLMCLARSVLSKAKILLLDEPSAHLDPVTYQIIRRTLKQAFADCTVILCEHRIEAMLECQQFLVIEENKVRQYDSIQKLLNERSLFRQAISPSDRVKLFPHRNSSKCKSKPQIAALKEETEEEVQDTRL
pEC50: −log10 of the molar value.

{"MOLECULE": "Cc1cccc(C(=O)Nc2nc(-c3ccccc3)c(-c3ccccc3)s2)c1", "pEC50": "> 5.00"}
{"MOLECULE": "CC[C@@H](C(=O)Nc1ncc(Cc2ccccc2Cl)s1)c1ccccc1", "pEC50": "> 5.00"}
{"MOLECULE": "Cc1cccc(Cc2cnc(NC(=O)c3ccccc3Cl)s2)c1", "pEC50": "4.60 to 5.00"}
{"MOLECULE": "CCC(C)C(C(=O)Nc1ncc(Cc2ccccc2OC)o1)c1ccccc1 (stereo not drawn)", "pEC50": "4.60 to 5.00"}
{"MOLECULE": "O=C(Nc1ncc(Cc2cccc(Cl)c2Cl)s1)C(c1ccccc1)c1ccccc1", "pEC50": "> 5.00"}
{"MOLECULE": "CCC(C(=O)Nc1ncc(C(=O)c2ccccc2Cl)s1)c1ccccc1 (stereo not drawn)", "pEC50": "4.22 to 4.60"}
{"MOLECULE": "COc1ccccc1Cc1cnc(NC(=O)CC(C)c2ccccc2)s1 (stereo not drawn)", "pEC50": "4.22 to 4.60"}
{"MOLECULE": "COc1ccccc1Cc1cnc(NC(=O)C(C)c2ccccc2)s1 (stereo not drawn)", "pEC50": "> 5.00"}
{"MOLECULE": "COc1cccc(-c2csc(NC(=O)c3cccc(C)c3)n2)c1", "pEC50": "4.60 to 5.00"}

###

Reported pEC50 values follow for various compounds
target: ΔF508-CFTR (Homo sapiens, UniProt P13569, DEL508-508); construct: expressed in transfected cells; host or cells: NIH3T3 mouse fibroblasts stably expressing ΔF508-CFTR for the optical, whole-cell and single-channel assays; Fisher rat epithelial (FRT) cells for Ussing chamber follow-up; experiment: Assays for ΔF508-CFTR correction and potentiator properties (membrane potential optical and electrophysiological methods); format: cell-based; settings: CFTR modulation, tested using the above methods
pEC50: −log10 of the molar value.

{"COMPOUND": "N#Cc1ccc(-c2csc(NC(=O)c3ccccc3)n2)cc1", "pEC50": "4.22 to 4.60"}
{"COMPOUND": "CCC(C(=O)Nc1ncc(Cc2ccccc2)s1)c1ccccc1 (centres unmarked)", "pEC50": "4.60 to 5.00"}
{"COMPOUND": "O=C(Nc1ncc(-c2ccccc2)s1)c1cccc(Cl)c1", "pEC50": "4.22 to 4.60"}
{"COMPOUND": "COc1ccc(-c2csc(NC(=O)c3ccccc3)n2)c(OC)c1", "pEC50": "4.22 to 4.60"}
{"COMPOUND": "O=C(Nc1ncc(-c2ccccc2)s1)c1ccccc1", "pEC50": "4.60 to 5.00"}

###

Reported EC50 values follow for various compounds
target: ΔF508-CFTR (Homo sapiens, UniProt P13569, DEL508-508); construct: Fisher rat epithelial (FRT) cells for Ussing chamber follow-up; experiment: Assays for ΔF508-CFTR correction and potentiator properties (membrane potential optical and electrophysiological methods); conditions: CFTR modulation, tested using the above methods
MEASURE: EC50

{"COMPOUND": "CCC(OC)C(=O)Nc1ncc(Cc2ccccc2Cl)s1 (centres unmarked)", "SYSTEM_TESTED": "ΔF508-CFTR (Homo sapiens, UniProt P13569, DEL508-508)", "REPORTED_MEASUREMENT": "25 to 60 µM"}
{"COMPOUND": "COc1ccccc1Cc1cnc(NC(=O)C(c2ccccc2)c2ccccc2)o1", "SYSTEM_TESTED": "ΔF508-CFTR (Homo sapiens, UniProt P13569, DEL508-508)", "REPORTED_MEASUREMENT": "10 to 25 µM"}
{"COMPOUND": "CCC(C(=O)Nc1ncc(C(O)c2ccccc2Cl)s1)c1ccccc1 (centres unmarked)", "SYSTEM_TESTED": "ΔF508-CFTR (Homo sapiens, UniProt P13569, DEL508-508)", "REPORTED_MEASUREMENT": "< 10 µM"}
{"COMPOUND": "CC[C@H](C(=O)Nc1ncc(Cc2ccccc2Cl)s1)c1ccccc1", "SYSTEM_TESTED": "ΔF508-CFTR (Homo sapiens, UniProt P13569, DEL508-508)", "REPORTED_MEASUREMENT": "< 10 µM"}
{"COMPOUND": "COc1ccccc1Cc1cnc(NC(=O)C(C)(C)c2ccccc2)s1", "SYSTEM_TESTED": "ΔF508-CFTR (Homo sapiens, UniProt P13569, DEL508-508)", "REPORTED_MEASUREMENT": "< 10 µM"}
{"COMPOUND": "CCCCc1ccc(C(=O)Nc2nccs2)cc1", "SYSTEM_TESTED": "ΔF508-CFTR (Homo sapiens, UniProt P13569, DEL508-508)", "REPORTED_MEASUREMENT": "< 10 µM"}
{"COMPOUND": "CCC(C(=O)Nc1ncc(Cc2ccccc2Cl)o1)c1ccccc1 (centres unmarked)", "SYSTEM_TESTED": "ΔF508-CFTR (Homo sapiens, UniProt P13569, DEL508-508)", "REPORTED_MEASUREMENT": "25 to 60 µM"}
{"COMPOUND": "CCC(=O)Nc1ncc(Cc2ccccc2Cl)s1", "SYSTEM_TESTED": "ΔF508-CFTR (Homo sapiens, UniProt P13569, DEL508-508)", "REPORTED_MEASUREMENT": "25 to 60 µM"}
{"COMPOUND": "CC[C@H](C(=O)Nc1ncc(Cc2ccc(Cl)cc2)s1)c1ccccc1", "SYSTEM_TESTED": "ΔF508-CFTR (Homo sapiens, UniProt P13569, DEL508-508)", "REPORTED_MEASUREMENT": "< 10 µM"}
{"COMPOUND": "CCC(C(=O)Nc1ncc(Cc2ccccc2Cl)s1)N1CCSCC1 (centres unmarked)", "SYSTEM_TESTED": "ΔF508-CFTR (Homo sapiens, UniProt P13569, DEL508-508)", "REPORTED_MEASUREMENT": "< 10 µM"}
{"COMPOUND": "CC(C)C(C(=O)Nc1ncc(Cc2ccc(Cl)cc2)s1)c1ccccc1 (centres unmarked)", "SYSTEM_TESTED": "ΔF508-CFTR (Homo sapiens, UniProt P13569, DEL508-508)", "REPORTED_MEASUREMENT": "< 10 µM"}
{"COMPOUND": "CCNC(CC)C(=O)Nc1ncc(Cc2ccccc2Cl)s1 (centres unmarked)", "SYSTEM_TESTED": "ΔF508-CFTR (Homo sapiens, UniProt P13569, DEL508-508)", "REPORTED_MEASUREMENT": "25 to 60 µM"}
{"COMPOUND": "CC(C)C(C(=O)Nc1nc(-c2ccncc2)cs1)c1ccccc1 (centres unmarked)", "SYSTEM_TESTED": "ΔF508-CFTR (Homo sapiens, UniProt P13569, DEL508-508)", "REPORTED_MEASUREMENT": "10 to 25 µM"}
{"COMPOUND": "CC(C(=O)Nc1ncc(Cc2cccc(Cl)c2)o1)c1ccccc1 (centres unmarked)", "SYSTEM_TESTED": "ΔF508-CFTR (Homo sapiens, UniProt P13569, DEL508-508)", "REPORTED_MEASUREMENT": "< 10 µM"}
{"COMPOUND": "O=C(Nc1ncc(Cc2cccc(Cl)c2)s1)C1c2ccccc2Oc2ccccc21", "SYSTEM_TESTED": "ΔF508-CFTR (Homo sapiens, UniProt P13569, DEL508-508)", "REPORTED_MEASUREMENT": "< 10 µM"}
{"COMPOUND": "O=C(Nc1ncc(Cc2cccc(Cl)c2)s1)c1ccccc1", "SYSTEM_TESTED": "ΔF508-CFTR (Homo sapiens, UniProt P13569, DEL508-508)", "REPORTED_MEASUREMENT": "< 10 µM"}
{"COMPOUND": "CCC(C(=O)Nc1nc2cc(C)c(C)cc2s1)c1ccccc1 (centres unmarked)", "SYSTEM_TESTED": "ΔF508-CFTR (Homo sapiens, UniProt P13569, DEL508-508)", "REPORTED_MEASUREMENT": "< 10 µM"}
{"COMPOUND": "CCOC(C(=O)Nc1ncc(Cc2ccccc2Cl)s1)c1ccccc1 (centres unmarked)", "SYSTEM_TESTED": "ΔF508-CFTR (Homo sapiens, UniProt P13569, DEL508-508)", "REPORTED_MEASUREMENT": "10 to 25 µM"}
{"COMPOUND": "O=C(Cc1ccccc1)Nc1ncc(Cc2ccc(Cl)cc2)o1", "SYSTEM_TESTED": "ΔF508-CFTR (Homo sapiens, UniProt P13569, DEL508-508)", "REPORTED_MEASUREMENT": "10 to 25 µM"}
{"COMPOUND": "CCCc1nc(NC(=O)C(CC)c2ccccc2)sc1C(=O)OCC (centres unmarked)", "SYSTEM_TESTED": "ΔF508-CFTR (Homo sapiens, UniProt P13569, DEL508-508)", "REPORTED_MEASUREMENT": "< 10 µM"}
